System: UO-31 renal
run description: NCI-60 one-dose screen, 48 h (100 = growth as untreated, 0 = no growth, -100 = all killed)
condition parameters: 10 µM
Protocol: Growth inhibition of the UO-31 human tumor cell line is measured as a screen for anti-cancer activity. Cells are grown in 96 well plates and exposed to the test compound for 48 hours. Compounds are tested at a single concentration, which is 10^-5 M for most compounds. The reported endpoint is percent growth (GI% or GIPRCNT), where numbers from 0 - 100% represent growth inhibition, and numbers from -100% - 0 represent cell death. For example, a value of 40 represents 60% growth inhibition. […]
The panel holds about 83,000 compounds, 20% with a hit somewhere; the sample as a whole holds those more often.
Quick rule for you: growth under -60% gets 1, anything else gets -1.

>>> class_label("CC[C@]12C=CCN3CC[C@@]4(c5ccc(OC)cc5N(C)[C@H]4[C@@](O)(C(=O)OC)[C@@H]1OC(=O)CCC[P+](c1ccc(C)cc1)(c1ccc(C)cc1)c1ccc(C)cc1)[C@@H]32")
1
>>> class_label("CC(=O)Oc1ccccc1C(=O)NC([Se])=NC1CCCCC1")
1
>>> class_label("O=C(/C=C/c1ccccc1Cl)c1nc2ccccc2n1Cc1ccc(F)cc1")
1

IN: Find out if reported growth for O=C(/C=C/c1ccc(F)cc1)c1nc2ccccc2n1Cc1ccc(Br)cc1 is less than -60%
OUT: 1

IN: Quick one: C[C@H]1[C@H](OC(=O)CCC(=O)N(CCCc2cn(-c3ccc(C#N)cc3)nn2)CCNc2ccnc3cc(Cl)ccc23)O[C@@H]2OC3(C)CC[C@H]4[C@H](C)CC[C@@H]1[C@@]24OO3
OUT: -1

IN: Quick one: O=C(/C=C/c1ccc(F)cc1)c1nc2ccccc2n1Cc1ccc(F)cc1
OUT: -1

IN: Quick one: O=C(/C=C/c1ccco1)c1nc2ccccc2n1Cc1ccc(F)cc1
OUT: -1

IN: Quick one: C=CC[Se]C(=O)c1ccc(C(=O)[Se]CC=C)s1
OUT: 1

IN: Quick one: Cc1c2oc3c(C)ccc(C(=O)N[C@@H]4C(=O)N[C@H](C(C)C)C(=O)N5CCC[C@H]5C(=O)N(C)CC(=O)N(C)[C@@H](C(C)C)C(=O)OC4C)c3nc-2c(C(=O)N[C@@H]2C(=O)N[C@H](C(C)C)C(=O)N3CC(=O)C[C@H]3C(=O)N(C)CC(=O)N(C)[C@@H](C(C)C)C(=O)OC2C)c(N)c1=O (some centres not stated)
OUT: -1

IN: Quick one: O=C(/C=C/c1ccc(Br)cc1)c1nc2ccccc2n1Cc1ccc(Br)cc1
OUT: 1

IN: Quick one: O=C(/C=C/c1ccco1)c1nc2ccccc2n1Cc1ccc(Br)cc1
OUT: -1

IN: Quick one: COc1cc(OC)c(S(=O)(=O)N(CCCl)CCCl)cc1C(=O)/C=C/c1cc(OC)c(OC)c(OC)c1
OUT: 1

* * *

Test system: HL-60(TB) leukemia
run description: NCI-60 one-dose screen, 48 h (100 = growth as untreated, 0 = no growth, -100 = all killed)
condition parameters: 10 µM unless noted
The panel holds about 83,000 compounds, 20% with a hit somewhere; the sample as a whole holds those more often.
Quick rule for you: growth under 10% gets t, anything else gets f.

>>> class_label("CC[C@]12C=CCN3CC[C@@]4(c5ccc(OC)cc5N(C)[C@H]4[C@@](O)(C(=O)OC)[C@@H]1OC(=O)CCCC[P+](c1ccc(OC)cc1)(c1ccc(OC)cc1)c1ccc(OC)cc1)[C@@H]32")
"t"
>>> class_label("O=C1Nc2cc(-c3ccc(NS(=O)(=O)c4ccc([N+](=O)[O-])cc4)cc3)ccc2/C1=C/c1ccc[nH]1")
"f"
>>> class_label("COc1ccc(C(=O)NNC(=O)CSc2nc3sc4c(c3c(=O)n2-c2ccc(Cl)cc2)CCCC4)cc1")
"f"
>>> class_label("Cc1cc2c(cc1Cl)C(=O)/C(=C/c1ccccc1)O2")
"t"
>>> class_label("CN(C)c1ccc(/C=C/c2nc3ccccc3c(=O)n2CC(=O)Nc2ccc(Cl)cc2)cc1")
"f"
>>> class_label("Cc1cccc(-c2nc(Nc3cccc(S(N)(=O)=O)c3)c3ccccc3n2)c1")
"f"
>>> class_label("Clc1ccc(/C=N/Nc2ncnc3sc4c(c23)CCN(Cc2ccccc2)C4)cc1")
"t"

# input for lookup
IN: Find out if reported growth for N/C(=N\c1nc2ccccc2s1)NC(=O)Nc1ccccc1Br is less than 10%
OUT: t
